TESTED ON: MDM2 (Homo sapiens)
Sequence (Q00987 1-125): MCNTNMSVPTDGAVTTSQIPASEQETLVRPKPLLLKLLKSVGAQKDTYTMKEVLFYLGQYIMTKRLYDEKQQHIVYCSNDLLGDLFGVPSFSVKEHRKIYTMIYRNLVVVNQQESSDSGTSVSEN
PROTOCOL: Competitive fluorescence polarization assay for MDM2
Assay type: binding
EXPERIMENTAL SETUP: competitive FP assay, MDM2; read-out: Ki (MDM2)
Where a SMILES comes first, the peptide text is derived from it. Bridges are numbered along the chain shown (N, C = ends). [ ]: non-standard residue; d: D form. R8 = C=CCCCCCC[C@@](C)(N)C(=O)O; S5 = C=CCCC[C@](C)(N)C(=O)O; Nle = CCCC[C@H](N)C(=O)O; Ac3c = NC1(C(=O)O)CC1
READOUT: Ki

Here is how some compounds turned out for Ki.
| COMPOUND | ENDPOINT VALUE |
| --- | --- |
| CCCC[C@H](NC(=O)[C@H](C)NC(=O)[C@H](C)NC(=O)[C@]1(C)CCC/C=C/CCCCCC[C@@](C)(NC(=O)[C@H](Cc2ccccc2)NC(=O)[C@@H](NC(=O)[C@H](CC(C)C)NC(C)=O)[C@@H](C)O)C(=O)N[C@@H](C)C(=O)N[C@@H](Cc2ccc(O)cc2)C(=O)N[C@@H](Cc2c[nH]c3ccccc23)C(=O)N[C@@H](C)C(=O)N[C@@H](CCC(N)=O)C(=O)N[C@@H](CC(C)C)C(=O)N1)C(=O)N[C@@H](C)C(N)=O | < 10 nM |
| CC(=O)N[C@@H](CCC(=O)O)C(=O)N[C@H](C(=O)N[C@@H](Cc1ccccc1)C(=O)N[C@]1(C)CCCCCCC=CCCC[C@@](C)(C(=O)N[C@@H](CO)C(=O)N[C@@H](C)C(=O)N[C@H](C)C(N)=O)NC(=O)[C@H](CC(C)C)NC(=O)[C@H](CCC(N)=O)NC(=O)[C@H](C)NC(=O)[C@H](Cc2c[nH]c3ccccc23)NC(=O)[C@H](Cc2ccc(O)cc2)NC(=O)[C@H](C(C)C)NC1=O)[C@@H](C)O [compound 124] (Ac-ETF[R8]VYWAQL[S5]SA[dA]-NH2; staple 4-11) | < 10 nM |
| CCCC[C@H](NC(=O)[C@H](C)NC(=O)[C@H](C)NC(=O)[C@]1(C)CCCC=CCCCCCC[C@@](C)(NC(=O)[C@H](Cc2ccccc2)NC(=O)[C@@H](NC(=O)[C@H](C)NC(C)=O)[C@@H](C)O)C(=O)N[C@@H](CCC(=O)O)C(=O)N[C@@H](Cc2ccc(O)cc2)C(=O)N[C@@H](Cc2c[nH]c3ccccc23)C(=O)N[C@@H](C)C(=O)N[C@@H](CCC(N)=O)C(=O)N[C@@H](CC(C)C)C(=O)N1)C(=O)N[C@@H](C)C(N)=O [compound 370] (Ac-ATF[R8]EYWAQL[S5]AA[Nle]A-NH2; staple 4-11) | < 10 nM |
| CC[C@H](C)[C@H](NC(=O)[C@H](C)NC(=O)[C@H](C)NC(=O)[C@]1(C)CCCC=CCCCCCC[C@@](C)(NC(=O)[C@H](Cc2ccccc2)NC(=O)[C@@H](NC(=O)[C@H](CC(C)C)NC(C)=O)[C@@H](C)O)C(=O)N[C@@H](C)C(=O)N[C@@H](Cc2ccc(O)cc2)C(=O)N[C@@H](Cc2c[nH]c3ccccc23)C(=O)N[C@@H](C)C(=O)N[C@@H](C)C(=O)N[C@@H](CC(C)C)C(=O)N1)C(=O)N[C@H](C)C(N)=O (single isomer, unassigned) | < 10 nM |
| CCCC[C@H](NC(=O)[C@H](C)NC(=O)[C@H](C)NC(=O)[C@]1(C)CCCC=CCCCCCC[C@@](C)(NC(=O)[C@H](Cc2ccccc2)NC(=O)[C@@H](NC(=O)[C@H](CC(C)C)NC(C)=O)[C@@H](C)O)C(=O)N[C@@H](C)C(=O)N(C)[C@@H](Cc2ccc(O)cc2)C(=O)N[C@@H](Cc2c[nH]c3ccccc23)C(=O)N[C@@H](C)C(=O)N[C@@H](CCC(N)=O)C(=O)N[C@@H](CC(C)C)C(=O)N1)C(=O)N[C@@H](C)C(N)=O (single isomer, unassigned) | 100 to 1000 nM |
| CCCC[C@H](NC(=O)[C@H](C)NC(=O)[C@H](C)NC(=O)[C@]1(C)CCCC=CCCCCCC[C@@](C)(NC(=O)[C@H](Cc2ccccc2)NC(=O)[C@@H](NC(=O)[C@H](CC(C)C)NC(=O)CN(C)C)[C@@H](C)O)C(=O)N[C@@H](C)C(=O)N[C@@H](Cc2ccc(O)cc2)C(=O)N[C@@H](Cc2c[nH]c3ccccc23)C(=O)N[C@@H](C)C(=O)N[C@@H](CCC(N)=O)C(=O)N[C@@H](CC(C)C)C(=O)N1)C(=O)N[C@@H](C)C(N)=O (single isomer, unassigned) | < 10 nM |
| CC[C@H](C)[C@H](NC(=O)[C@H](C)NC(=O)[C@H](C)NC(=O)[C@]1(C)CCCC=CCCCCCC[C@@](C)(NC(=O)[C@H](Cc2ccccc2)NC(C)=O)C(=O)N[C@@H](C)C(=O)N[C@@H](Cc2ccc(O)cc2)C(=O)N[C@@H](Cc2c[nH]c3ccccc23)C(=O)N[C@@H](CCC(=O)O)C(=O)NC2(CC2)C(=O)N[C@@H](CC(C)C)C(=O)N1)C(N)=O [compound 19] (Ac-F[R8]AYWE[Ac3c]L[S5]AAI-NH2; staple 2-9) | 10 to 100 nM |
| CCCCCCNC(=O)[C@H](C)NC(=O)[C@H](CCCC)NC(=O)[C@H](C)NC(=O)[C@H](C)NC(=O)[C@]1(C)CCCC=CCCCCCC[C@@](C)(NC(=O)[C@H](Cc2ccccc2)NC(=O)[C@@H](NC(=O)[C@H](CC(C)C)NC(C)=O)[C@@H](C)O)C(=O)N[C@@H](C)C(=O)N[C@@H](Cc2ccc(O)cc2)C(=O)N[C@@H](Cc2c[nH]c3ccccc23)C(=O)N[C@@H](C)C(=O)N[C@@H](CCC(N)=O)C(=O)N[C@@H](CC(C)C)C(=O)N1 (single isomer, unassigned) | 10 to 100 nM |

Provide Ki, recorded with MDM2 (Homo sapiens), of `CCCC[C@H](NC(=O)[C@H](C)NC(=O)[C@H](C)NC(=O)C(C)(C)NC(=O)[C@H](CC(C)C)NC(=O)[C@H](CCC(N)=O)NC(=O)[C@H](C)NC(=O)[C@H](Cc1c[nH]c2ccccc12)NC(=O)[C@H](Cc1ccc(O)cc1)NC(=O)[C@H](C)NC(=O)C(C)(C)NC(=O)[C@H](Cc1ccccc1)NC(=O)[C@@H](NC(=O)[C@H](CC(C)C)NC(C)=O)[C@@H](C)O)C(=O)N[C@@H](C)C(N)=O`
< 10 nM
